measured-attribute: melting point (°C)

The following compounds have reported results that may help.
CC(N)=O [Acetamide]; 81
[O-][n+]1onc2cc(Cl)ccc21; 47
CCCOC(=O)C1=C(C)NC(C)=C(C(=O)OCCC)C1c1cccc(OC)c1O; 167
CCCCCc1ccc(O)cc1; 24

A: CCCCCCCCCCCCCCCCCCCC [Icosane]
B: C=C1CC2C3C=C(C)C4=CC(=O)CCC4(C)C3CCC2(C)C1(OC(C)=O)C(C)=O (stereo unspecified) [melengestrolacetate]
C: O=Cc1ccc(O)c(O)c1 [3,4-dihydroxybenzaldehyde]
D: C[Si](C)(C)N[Si](C)(C)C
**Q:** Provide the items ranked by increasing melting point. Would you mind listing the labels in the order requested?
**A:** D, A, C, B

A: C[C@@H](O)[C@@H](N)C(=O)O
B: CCCCCCCCCCC(=O)O [Undecanoic acid]
**Q:** // returns A or B , whichever has the lower melting point Lab log: write the label of the selected item as the result.
**A:** B
(B: 28.5 °C, A: 278 °C)

---

measured-attribute: melting point (°C)

The following molecules have reported results that may help.
O=Cc1cc(Cl)ccc1O [5-chlorosalicylaldehyde]; 101
O=C(O)c1sc2ccccc2c1Cl [3-chlorobenzo[b]thiophene-2-carboxylic acid]; 266
Fc1cc(OCc2ccccc2)ccc1Br [4-benzyloxy-1-bromo-2-fluorobenzene]; 34
O=[N+]([O-])c1cc([N+](=O)[O-])c(F)cc1F [1,5-difluoro-2,4-dinitrobenzene]; 74
CCC1C2=C(OC(=O)C1(C)C)c1ccc(OC)cc1CC2 (stereo not given); 143

I: O=C(O)/C=C/c1ccco1 [3-(2-furyl)acrylic acid]
II: CCOC(=O)c1ccccc1O [ethyl salicylate]
III: CCCCC1CCCCC1 [butylcyclohexane]
IV: C[C@H](O)[C@@H](C)O [(2R,3S)-Butane-2,3-diol]
**Q:** Provide the items ranked by increasing melting point. Would you mind listing the labels in the order requested?
**A:** III, II, IV, I

---

measured-attribute: melting point (°C)

CCCCCCCCCCCCCCCCCCS [1-octadecanethiol]; 32
O=C(C1CCCCC1)N1CC(=O)N2CCc3ccccc3C2C1 (centres undefined) [praziquantel]; 136
O=C1CCCc2cc3c(c(-c4ccccc4)c21)-c1cc(Cl)ccc1OC3; 185
Oc1cccc(F)c1 [3-fluorophenol]; 12
COc1ccc(/C(C)=C/C(C)=O)cc1 [(3E)-4-(4-methoxyphenyl)pent-3-en-2-one]; 53
CC1=NN(c2ccccc2)C(=O)/C1=C/c1ccccc1O; 154
Oc1ccccc1O [catechol]; 105
O=[N+]([O-])c1ccc(Oc2ccc(C(F)(F)F)cc2[N+](=O)[O-])cc1 [Fluorodifen]; 90
Cc1nccnc1C [2,3-dimethylpyrazine]; -12
O=Cc1ccccc1Br [o-bromobenzaldehyde]; 22

I: C=CCCCCCCCCCCC [1-tridecene]
II: O=C(O)c1ccc2c(c1)OCCCO2 [3,4-dihydro-2h-1,5-benzodioxepin-7-carboxylic acid]
III: Cn1c(=O)c2c(ncn2C)n(C)c1=O [Caffeine]
**Q:** Output the entries ranked by melting point from maximum down to minimum. Would you mind listing the labels in the order requested?
**A:** III, II, I
(III: 236 °C, II: 148 °C, I: -23 °C)

---

measured-attribute: melting point (°C)

CCCCCCCCCCCCCCCCC(=O)O; 61

A: CCCCCCCCN(CCCCCCCC)CCCCCCCC
B: OCc1ccccc1CO
C: OC1CCCCC1
**Q:** Provide the items ranked by increasing melting point. Would you mind listing the labels in the order requested?
**A:** A, C, B

I: CC(=O)c1ccc(N=C=S)cc1 [4-acetylphenyl isothiocyanate]
II: Cc1cccc(C)c1C [1,2,3-Trimethylbenzene]
III: N#CCc1ccccc1Br
IV: O=C(O)Cc1ccccc1-c1ccccc1
V: O=C(O)c1cccc2c1nnn2Cc1ccccc1
**Q:** Provide the items ranked by increasing melting point. Would you mind listing the labels in the order requested?
**A:** II, III, I, IV, V
(II: -25 °C, III: -1 °C, I: 79 °C, IV: 116 °C, V: 221 °C)

a: CCCC[C@@H](NC(=O)OCc1ccccc1)C(=O)O
b: O=C(NC1CCCCC1)c1ccccc1 [N-cyclohexylbenzamide]
**Q:** // returns a or b , whichever has the lower melting point Lab log: write the label of the selected item as the result.
**A:** a
(a: 57 °C, b: 162 °C)

P: COc1ccccc1P(c1ccccc1OC)c1ccccc1OC
Q: CCOC(=O)CCC(C)C1CCC2C3C(=O)C(Br)C4CC(OC(C)=O)CCC4(C)C3CC(OC(C)=O)C12C (centres undefined) [ethyl 3,12-bis(acetyloxy)-6-bromo-7-oxocholan-24-oate]
**Q:** Between P and Q , whose recorded melting point is greater? Lab log: write the label of the selected item as the result.
**A:** P
